- tested system: chimeric CD1a pool B protein [human CD1a lipid binding domain, mouse CD1d Ig domain] (human; mouse, UniProt P06126 18-201; P11609 205-297, limits assumed)
- Sequence (P06126 other isoform, or with tags, fused parts or gaps mutant limits assumed): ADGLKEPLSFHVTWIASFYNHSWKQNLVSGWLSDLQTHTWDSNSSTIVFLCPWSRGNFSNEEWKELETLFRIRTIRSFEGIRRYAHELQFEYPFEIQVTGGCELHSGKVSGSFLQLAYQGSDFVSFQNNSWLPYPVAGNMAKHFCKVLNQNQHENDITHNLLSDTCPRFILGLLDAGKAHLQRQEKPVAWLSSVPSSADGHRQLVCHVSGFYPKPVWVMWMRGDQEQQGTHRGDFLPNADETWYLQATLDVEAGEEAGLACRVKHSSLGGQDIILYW
- test name: ELISA, 0.0316 µg/ml antibody
value type: Optical Density (OD)

[
  {
    "binder": "77A (VR11851) (antibody, V domains shown, also called OX77a; antibody 77a) VH: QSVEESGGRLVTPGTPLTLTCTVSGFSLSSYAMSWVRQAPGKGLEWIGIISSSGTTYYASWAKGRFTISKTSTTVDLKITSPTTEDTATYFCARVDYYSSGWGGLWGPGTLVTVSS VL: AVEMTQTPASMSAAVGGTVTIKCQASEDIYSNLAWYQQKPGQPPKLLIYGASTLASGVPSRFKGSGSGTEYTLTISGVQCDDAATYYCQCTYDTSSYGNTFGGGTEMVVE",
    "measured value": "1.09 OD"
  },
  {
    "binder": "110 (VR12112) (antibody, V domains shown, also called OX110; antibody 110) VH: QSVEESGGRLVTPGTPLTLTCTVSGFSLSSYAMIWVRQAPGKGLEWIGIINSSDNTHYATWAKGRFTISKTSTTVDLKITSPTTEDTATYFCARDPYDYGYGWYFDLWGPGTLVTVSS VL: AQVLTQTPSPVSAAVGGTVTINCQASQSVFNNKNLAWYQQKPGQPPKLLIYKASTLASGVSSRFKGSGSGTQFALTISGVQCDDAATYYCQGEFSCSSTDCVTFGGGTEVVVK",
    "measured value": "0.73 OD"
  },
  {
    "binder": "116 (VR12117) (antibody, V domains shown, also called OX116) VH: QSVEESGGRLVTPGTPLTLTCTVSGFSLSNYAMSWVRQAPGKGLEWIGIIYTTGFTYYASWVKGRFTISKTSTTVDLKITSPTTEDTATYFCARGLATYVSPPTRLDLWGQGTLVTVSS VL: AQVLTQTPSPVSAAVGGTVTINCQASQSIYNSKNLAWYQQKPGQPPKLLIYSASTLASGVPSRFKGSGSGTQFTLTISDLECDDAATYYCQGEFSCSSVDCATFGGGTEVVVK",
    "measured value": "1.13 OD"
  },
  {
    "binder": "111 (VR12113) (antibody, V domains shown, also called OX111) VH: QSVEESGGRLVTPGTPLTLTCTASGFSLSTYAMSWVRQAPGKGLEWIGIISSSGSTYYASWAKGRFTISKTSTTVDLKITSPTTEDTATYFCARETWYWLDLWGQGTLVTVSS VL: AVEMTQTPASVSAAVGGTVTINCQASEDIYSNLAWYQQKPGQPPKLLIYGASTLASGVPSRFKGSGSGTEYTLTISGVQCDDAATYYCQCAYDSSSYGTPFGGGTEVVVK",
    "measured value": "1.19 OD"
  }
]

Taken from patent US20250289893A1.
